subject_of_test: human kinase Mps-1 (Homo sapiens (Human))
assay_name: Mps-1 kinase assay (TR-FRET)
Type: biochemical
experimental_context: N-terminally GST-tagged human full length recombinant Mps-1; 10 μM ATP; 1 μM biotinylated peptide substrate; read-out: Mps1 IC50
Kindly state IC50 for each of the entries shown.
Answers are plain numbers, in nM.

mol_smiles=CCNC(=O)c1ccc(-n2cnc3c(NCCC(F)(F)F)cc(Oc4ccc(O)cc4F)cc32)cc1C subject_of_test="human kinase Mps-1 (Homo sapiens (Human))" units_text=nM observed_measurement=4.6

# batch size: 3; output IC50 per entry
1. Cc1cc(-n2cnc3c(NCCC(F)(F)F)cc(Oc4ccccc4O)cc32)ccc1C(=O)NC1CC1
2. Cc1cc(-n2cnc3c(NCCC(F)(F)F)cc(Oc4cccc(F)c4)cc32)ccc1C(=O)NC1(C)CC1
3. COc1ccc(Oc2cc(NCCC(F)(F)F)c3ncn(-c4ccc(C(=O)NC5CC5)cc4)c3c2)cc1F

Completion:
0.2
15.3
0.4

====

Kindly state pIC50 for each of the entries shown.
subject_of_test: human kinase Mps-1 (Homo sapiens (Human), UniProt P33981)
Sequence (P33981 whole entry): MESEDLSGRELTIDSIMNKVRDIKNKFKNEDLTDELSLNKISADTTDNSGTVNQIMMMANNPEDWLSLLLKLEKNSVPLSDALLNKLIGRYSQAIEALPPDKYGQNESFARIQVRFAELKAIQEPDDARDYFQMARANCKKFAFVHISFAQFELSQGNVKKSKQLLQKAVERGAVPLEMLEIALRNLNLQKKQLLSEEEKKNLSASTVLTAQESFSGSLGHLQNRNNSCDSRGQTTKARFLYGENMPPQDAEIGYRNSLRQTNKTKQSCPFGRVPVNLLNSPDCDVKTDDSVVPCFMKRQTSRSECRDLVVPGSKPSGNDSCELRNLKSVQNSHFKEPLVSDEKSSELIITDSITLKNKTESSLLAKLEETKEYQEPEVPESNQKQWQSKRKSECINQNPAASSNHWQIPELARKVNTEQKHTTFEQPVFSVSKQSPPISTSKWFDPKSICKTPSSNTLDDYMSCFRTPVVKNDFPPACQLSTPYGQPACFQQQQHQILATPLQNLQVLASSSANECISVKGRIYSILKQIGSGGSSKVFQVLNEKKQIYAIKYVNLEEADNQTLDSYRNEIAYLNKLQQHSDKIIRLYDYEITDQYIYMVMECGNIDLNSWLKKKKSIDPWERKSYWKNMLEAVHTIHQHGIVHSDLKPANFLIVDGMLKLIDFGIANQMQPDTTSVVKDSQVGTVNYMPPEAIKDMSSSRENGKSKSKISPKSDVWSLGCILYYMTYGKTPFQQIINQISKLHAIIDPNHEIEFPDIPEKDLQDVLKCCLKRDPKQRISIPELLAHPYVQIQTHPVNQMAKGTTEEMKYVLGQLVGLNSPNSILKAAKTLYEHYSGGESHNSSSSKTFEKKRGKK
assay_name: Mps-1 kinase assay (TR-FRET)
Type: biochemical
experimental_context: N-terminally GST-tagged human full length recombinant Mps-1; 10 μM ATP; 1 μM biotinylated peptide substrate; read-out: Mps1 IC50
Procedure: The human kinase Mps-1 phosphorylates a biotinylated substrate peptide. Detection of the phosphorylated product is achieved by time-resolved fluorescence resonance energy transfer (TR-FRET) from Europium-labelled anti-phospho-Serine/Threonine antibody as donor to streptavidin labelled with cross-linked allophycocyanin (SA-XLent) as acceptor. Compounds are tested for their inhibition of the kinase activity. […]
One number for each entry, as −log10 of the molar value.

Would you please look over these solved cases?
compound="COc1ccc(C(C)(O)c2cc(NCCC(F)(F)F)c3ncn(-c4ccc(C(=O)NC5CC5)c(C)c4)c3c2)cc1F (racemic) [Example 103A]" subject_of_test="human kinase Mps-1 (Homo sapiens (Human), UniProt P33981)" observed_measurement=8.57
compound=Cc1cc(-n2cnc3c(NCCC(F)(F)F)cc(Oc4cccc(S(C)(=O)=O)c4)cc32)ccc1C(=O)NC1CC1 subject_of_test="human kinase Mps-1 (Homo sapiens (Human), UniProt P33981)" observed_measurement=8.59
compound="CCNC(=O)c1ccc(-n2cnc3c(NCC4CCOCC4)cc(Oc4ccc(OC)cc4SC)cc32)cc1C [Example 117B]" subject_of_test="human kinase Mps-1 (Homo sapiens (Human), UniProt P33981)" observed_measurement=7.59

# batch size: 5; output pIC50 per entry
1. CCNC(=O)c1ccc(-n2cnc3c(NCCC(F)(F)F)cc(Oc4ccccc4OC)cc32)cc1C
2. CNC(=O)c1ccc(-n2cnc3c(NCCC(F)(F)F)cc(Oc4cccc(F)c4O)cc32)cc1C
3. Cc1cc(-n2cnc3c(NCCC(F)(F)F)cc(Oc4ccc(OC(F)F)cc4)cc32)ccc1C(=O)NC1CC1
4. Cc1cc(-n2cnc3c(NCC4CCOCC4)cc(Oc4ccc(Cl)c(F)c4)cc32)ccc1C(=O)NC1CC1
5. COc1ccc(Cc2cc(NCCC(F)(F)F)c3ncn(-c4ccc(C(=O)NC5CC5)c(C)c4)c3c2)cc1F

Completion:
7.24
8.52
8.89
8.57
9.05

# batch size: 4; output pIC50 per entry
1. CNC(=O)c1ccc(-n2cnc3c(NCCC(F)(F)F)cc(Oc4cccc(F)c4)cc32)cc1C
2. Cc1cc(-n2cnc3c(NCC4CCOCC4)cc(Oc4cccc(F)c4)cc32)ccc1C(=O)NC1CC1
3. CNC(=O)c1ccc(-n2cnc3c(NCCC(F)(F)F)cc(Oc4ccc(O)cc4F)cc32)cc1C
4. Cc1cc(-n2cnc3c(NCCC(F)(F)F)cc(Oc4cccc(S(F)(F)(F)(F)F)c4)cc32)ccc1C(=O)NC1CC1

Completion:
1. 8.33
2. 9.40
3. 8.34
4. 8.32

# batch size: 3; output pIC50 per entry
1. Cc1cc(-n2cnc3c(NCCC(F)(F)F)cc(Oc4ccc(N5CCOCC5)cc4)cc32)ccc1C(=O)NC1CC1
2. Cc1ccc(F)cc1Oc1cc(NCCC(F)(F)F)c2ncn(-c3ccc(C(=O)NC4CC4)c(C)c3)c2c1
3. Cc1cc(-n2cnc3c(NCCC(F)(F)F)cc(Oc4ccc(Cl)cc4)cc32)ccc1C(=O)NC1CC1

Completion:
7.94
8.28
8.62

Attribution: patent US9388140B2
